# phage binding ELISA signal values compiled below
target.entity: T1, 006 PSMA Fab
T1 construct: also called Anti-PSMA Fab
assay.comment: clonal phage ELISA on biotinylated anti-PSMA Fab captured on neutravidin, anti-M13 HRP detection
Enter a number only.

Answered cases to consult:
EERICKPQWMCSAF [Phage-3530]
1.66
LIALCKPPWMCEWF [Phage-3526]
1.67
GPKICVPMWMCDGF [Phage-3518]
1.68

Lab note: measured phage binding ELISA signal of VVPWCSPAWMCSGF [Phage-3529] was 1.67

Lab note: measured phage binding ELISA signal of PSISCTPQWMCFGF [Phage-3521] was 1.68

Lab note: measured phage binding ELISA signal of DMARCIPAWMCTGF [Phage-3523] was 1.68

Lab note: measured phage binding ELISA signal of GYVMCEPRWMCEGL [Phage-3528] was 1.67

Lab note: measured phage binding ELISA signal of ALLSCVPPWMCLGL [Phage-3522] was 1.68

Lab note: measured phage binding ELISA signal of VSPSCVPPWMCVGF [Phage-3531] was 1.66

Lab note: measured phage binding ELISA signal of EVQYCVPAWMCEGF [Phage-3520] was 1.68

Lab note: measured phage binding ELISA signal of SAIRCEPLWMCSGL [Phage-3519] was 1.68
